- Test system: RS4;11 cells
- assay method text: RS4;11 Cell Viability Assay (CellTiter Glo);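 further: RS4,11 acute lymphoblastic leukemia cells, viability as percent of untreated control cells, EC50 for loss of viable cells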
- Format: cell-based
- protocol conditions: Homo sapiens, RS4-11, 48 h, 50,000 cells per well, 10% human serum
In this section we review reported EC50 values for a set of molecules.
experimental readout: EC50 (nM)

INSERT INTO assay_data (molecule, experimental_readout, relation_qualifier, meas_value) VALUES
  ('O=C(NS(=O)(=O)c1ccc(NCC2CCOCC2)c([N+](=O)[O-])c1)c1ccc(N2CCN(Cc3ccccc3-c3ccc(Cl)cc3)CC2)cc1Oc1ccc2[nH]ccc2c1 [Example 87]', 'EC50', '=', 1180),
  ('COC1CCN(C(=O)Nc2ccc(S(=O)(=O)NC(=O)c3ccc(N4CCN(CC5=C(c6ccc(Cl)cc6)CC(C)(C)CC5)CC4)cc3Oc3cnc4[nH]ccc4c3)cc2[N+](=O)[O-])CC1 [Example 386]', 'EC50', '=', 8.38),
  ('CC1(C)CCC(CN2CCN(c3ccc(C(=O)NS(=O)(=O)c4ccc5c(c4)nnn5CC4CCOCC4)c(Oc4cnc5[nH]ccc5c4)c3)CC2)=C(c2ccc(Cl)cc2)C1 [Example 384]', 'EC50', '>', 1000),
  ('CC1(C)CCC(CN2CCN(c3ccc(C(=O)NS(=O)(=O)c4ccc(NC(=O)N5CCC(C#N)CC5)c(Cl)c4)c(Oc4cnc5[nH]ccc5c4)c3)CC2)=C(c2ccc(Cl)cc2)C1 [Example 393]', 'EC50', '>', 1000),
  ('CC1(C)CCC(CN2CCN(c3ccc(C(=O)NS(=O)(=O)c4ccc(OCC5CCC(CO)(CO)CC5)c([N+](=O)[O-])c4)c(Oc4cnc5[nH]ccc5c4)c3)CC2)=C(c2ccc(Cl)cc2)C1 [Example 391]', 'EC50', '=', 8.41);

Reference for the values: patent US8580794B2
